This collection of values is drawn from patent US20200222474A1.

Below, each entry is listed alongside its reported Transcripts per million (rpm).
system: L. acidophilus NCFM; assay: RNA-seq transcriptional analysis of L. acidophilus NCFM growing on plant glycosides; format: cell-based, Lactobacillus acidophilus; settings: gene LBA0543 (Hypothetical protein)
# unit: rpm | format: bare number

# Transcripts per million (rpm) lookup, item N#C[C@H](O[C@@H]1O[C@H](CO[C@@H]2O[C@H](CO)[C@@H](O)[C@H](O)[C@H]2O)[C@@H](O)[C@H](O)[C@H]1O)c1ccccc1
283.1

====

system: L. acidophilus NCFM; assay: RNA-seq transcriptional analysis of L. acidophilus NCFM growing on plant glycosides; assay type: cell-based, Lactobacillus acidophilus; settings: gene LBA1027 (Oxidoreductase)
Below, each entry is listed alongside its reported Transcripts per million (rpm).

>  <Smiles code>
N#C[C@H](O[C@@H]1O[C@H](CO[C@@H]2O[C@H](CO)[C@@H](O)[C@H](O)[C@H]2O)[C@@H](O)[C@H](O)[C@H]1O)c1ccccc1

>  <Transcripts per million (rpm)>
3613.2 rpm

$$$$
>  <Smiles code>
OC[C@H]1O[C@@H](O[C@H]2[C@H](O)[C@@H](O)[C@@H](O)O[C@@H]2CO)[C@H](O)[C@@H](O)[C@H]1O

>  <Transcripts per million (rpm)>
1733.7 rpm

$$$$
>  <Smiles code>
O=c1ccc2cc(O[C@@H]3O[C@H](CO)[C@@H](O)[C@H](O)[C@H]3O)c(O)cc2o1

>  <Transcripts per million (rpm)>
2680.9 rpm

$$$$

Find the measured Transcripts per million (rpm): item OCc1ccccc1O[C@@H]1O[C@H](CO)[C@@H](O)[C@H](O)[C@H]1O , target or system L. acidophilus NCFM.
2726.8 rpm

====

test system: L. acidophilus NCFM; assay: RNA-seq transcriptional analysis of L. acidophilus NCFM growing on plant glycosides; format: cell-based, Lactobacillus acidophilus; conditions: LBA1870 Maltose phosphorylase, COG G
Below, each entry is listed alongside its reported Log2 differential normalized TPM ratio compared to glucose.

>  <Compound>
OCc1ccccc1O[C@@H]1O[C@H](CO)[C@@H](O)[C@H](O)[C@H]1O [Salicin]

>  <Target of assay>
L. acidophilus NCFM

>  <Recorded value>
−0.9

$$$$

# Log2 differential normalized TPM ratio compared to glucose lookup, item N#C[C@H](O[C@@H]1O[C@H](CO[C@@H]2O[C@H](CO)[C@@H](O)[C@H](O)[C@H]2O)[C@@H](O)[C@H](O)[C@H]1O)c1ccccc1 [Amygdalin]
2.7

Now consider O=c1ccc2cc(O[C@@H]3O[C@H](CO)[C@@H](O)[C@H](O)[C@H]3O)c(O)cc2o1 [Esculin] .
0

Now consider OC[C@H]1O[C@@H](O[C@H]2[C@H](O)[C@@H](O)[C@@H](O)O[C@@H]2CO)[C@H](O)[C@@H](O)[C@H]1O [Lac] .
−1.2

====

system: L. acidophilus NCFM; assay: RNA-seq transcriptional analysis of L. acidophilus NCFM growing on plant glycosides; assay type: cell-based, Lactobacillus acidophilus; details: gene LBA0327 (Replication protein)
Property measured: Log2 differential normalized TPM ratio compared to glucose
Write the number on its own, no unit after it.

Some molecules with recorded Log2 differential normalized TPM ratio compared to glucose:
>  <Smiles code>
N#C[C@H](O[C@@H]1O[C@H](CO[C@@H]2O[C@H](CO)[C@@H](O)[C@H](O)[C@H]2O)[C@@H](O)[C@H](O)[C@H]1O)c1ccccc1

>  <Recorded value>
−0.9

$$$$
>  <Smiles code>
O=c1ccc2cc(O[C@@H]3O[C@H](CO)[C@@H](O)[C@H](O)[C@H]3O)c(O)cc2o1

>  <Recorded value>
2.4

$$$$

# Log2 differential normalized TPM ratio compared to glucose lookup, item OC[C@H]1O[C@@H](O[C@H]2[C@H](O)[C@@H](O)[C@@H](O)O[C@@H]2CO)[C@H](O)[C@@H](O)[C@H]1O
0.2

Now consider OCc1ccccc1O[C@@H]1O[C@H](CO)[C@@H](O)[C@H](O)[C@H]1O .
0
